Could you please report measured pIC50 for the items listed next?
target: Histone-lysine N-methyltransferase EZH2 (Homo sapiens, UniProt Q15910, Y641F); test: Inhibition of EZH2 Y641F mutant (unknown origin)
Sequence (Q15910 whole entry Y641F): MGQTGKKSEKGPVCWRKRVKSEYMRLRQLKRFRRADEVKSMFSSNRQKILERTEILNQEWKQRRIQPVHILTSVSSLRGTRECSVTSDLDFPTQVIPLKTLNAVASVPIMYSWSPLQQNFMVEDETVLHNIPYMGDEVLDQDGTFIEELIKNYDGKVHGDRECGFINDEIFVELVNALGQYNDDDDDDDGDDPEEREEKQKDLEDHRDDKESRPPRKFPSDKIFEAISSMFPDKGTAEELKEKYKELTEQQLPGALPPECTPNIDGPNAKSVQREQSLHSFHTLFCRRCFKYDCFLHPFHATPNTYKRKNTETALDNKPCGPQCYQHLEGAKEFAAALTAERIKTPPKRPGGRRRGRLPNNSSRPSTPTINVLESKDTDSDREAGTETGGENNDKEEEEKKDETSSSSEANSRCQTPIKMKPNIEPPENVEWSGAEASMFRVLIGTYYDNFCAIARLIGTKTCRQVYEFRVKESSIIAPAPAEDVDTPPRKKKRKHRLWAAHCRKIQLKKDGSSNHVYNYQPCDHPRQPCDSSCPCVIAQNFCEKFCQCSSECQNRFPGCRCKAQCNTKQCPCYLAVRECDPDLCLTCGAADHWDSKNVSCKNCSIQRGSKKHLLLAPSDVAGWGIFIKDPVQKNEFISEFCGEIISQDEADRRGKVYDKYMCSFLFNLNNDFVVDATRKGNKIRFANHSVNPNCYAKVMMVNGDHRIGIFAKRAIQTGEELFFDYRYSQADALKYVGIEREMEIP
Note on pIC50: it is the negative log10 of concentration, concentration in mol/L.

# query: pIC50 of entry `Cc1cc(C)c(CNC(=O)c2cc(-c3ccc4ncccc4c3)cc3[nH]c(=O)ccc23)c(=O)[nH]1`
7.93

# query: pIC50 of entry `COc1cc(-c2cc(C(=O)NCc3c(C)cc(C)[nH]c3=O)c3ccc(=O)[nH]c3c2)ccc1F`
8.27

# query: pIC50 of entry `Cc1ccc(-c2cc(C(=O)NCc3c(C)cc(C)[nH]c3=O)c3ccc(=O)[nH]c3c2)cc1`
8.11

# query: pIC50 of entry `COc1cccc(OC)c1-c1cc(C(=O)NCc2c(C)cc(C)[nH]c2=O)c2ccc(=O)[nH]c2c1`
8.05

# query: pIC50 of entry `Cc1cc(C)c(CNC(=O)c2cc(-c3ccc(-c4ccccc4)cc3)cc3[nH]c(=O)ccc23)c(=O)[nH]1`
8.13

# query: pIC50 of entry `Cc1cc(C)c(CNC(=O)c2cc(-c3ccccc3)cc3[nH]c(=O)ccc23)c(=O)[nH]1`
7.99

# query: pIC50 of entry `Cc1cc(C)c(CNC(=O)c2cc(-c3ccc(C(=O)O)cc3)cc3[nH]c(=O)ccc23)c(=O)[nH]1`
8.19

# query: pIC50 of entry `Cc1cc(C)c(CNC(=O)c2cc(-c3ccc(Oc4ccccc4)cc3)cc3[nH]c(=O)ccc23)c(=O)[nH]1`
8.03

# query: pIC50 of entry `COc1c(C)cccc1-c1cc(C(=O)NCc2c(C)cc(C)[nH]c2=O)c2ccc(=O)[nH]c2c1`
7.98

# query: pIC50 of entry `Cc1cc(C)c(CNC(=O)c2cc(-c3ccc(Br)cc3)cc3[nH]c(=O)ccc23)c(=O)[nH]1`
8.25

# query: pIC50 of entry `Cc1cc(C)c(CNC(=O)c2cc(-c3cccnc3)cc3[nH]c(=O)ccc23)c(=O)[nH]1`
8.07

# query: pIC50 of entry `Cc1cc(C)c(CNC(=O)c2cc(-c3cccc4ccccc34)cc3[nH]c(=O)ccc23)c(=O)[nH]1`
7.91

# query: pIC50 of entry `COc1ccc2cc(-c3cc(C(=O)NCc4c(C)cc(C)[nH]c4=O)c4ccc(=O)[nH]c4c3)ccc2c1`
8.13

====

tested on: A549; experiment: Induction of apoptosis in human A549 cells assessed as early apoptotic cells incubated for 24 hrs by Annexin V/PI staining based flow cytometry analysis (reference value: 1.17 %); assay type: functional
Observable: Activity (%)
Write the answer as a number in %, unit excluded.

# query: Activity of entry `COc1cc(-c2cc(C(=O)NCc3c(C)cc(C)[nH]c3=O)c3ccc(=O)[nH]c3c2)ccc1F`
3.63

# query: Activity of entry `Cc1cc(C)c(CNC(=O)c2cc(-c3ccc(-c4ccccc4)cc3)cc3[nH]c(=O)ccc23)c(=O)[nH]1`
10.1

# query: Activity of entry CCN(c1cc(-c2ccc(CN3CCOCC3)cc2)cc(C(=O)NCc2c(C)cc(C)[nH]c2=O)c1C)C1CCOCC1 [TAZEMETOSTAT]
2.3

# query: Activity of entry `Cc1cc(C)c(CNC(=O)c2cc(-c3ccc(Br)cc3)cc3[nH]c(=O)ccc23)c(=O)[nH]1`
12.4
